The reported numbers originate from patent US12624044B2.

biological target: SMARCA2 (Homo sapiens, UniProt P51531); test: MSD SMARCA2 degradation in NCI-H1299 cell line (24 h); assay type: cell-based; design: HC: NCI-H1299 cells treated with DMSO; host or cells: NCI-H1299; conditions: NCI-H1299, NCI-H1299 cells
Sequence (P51531 whole entry): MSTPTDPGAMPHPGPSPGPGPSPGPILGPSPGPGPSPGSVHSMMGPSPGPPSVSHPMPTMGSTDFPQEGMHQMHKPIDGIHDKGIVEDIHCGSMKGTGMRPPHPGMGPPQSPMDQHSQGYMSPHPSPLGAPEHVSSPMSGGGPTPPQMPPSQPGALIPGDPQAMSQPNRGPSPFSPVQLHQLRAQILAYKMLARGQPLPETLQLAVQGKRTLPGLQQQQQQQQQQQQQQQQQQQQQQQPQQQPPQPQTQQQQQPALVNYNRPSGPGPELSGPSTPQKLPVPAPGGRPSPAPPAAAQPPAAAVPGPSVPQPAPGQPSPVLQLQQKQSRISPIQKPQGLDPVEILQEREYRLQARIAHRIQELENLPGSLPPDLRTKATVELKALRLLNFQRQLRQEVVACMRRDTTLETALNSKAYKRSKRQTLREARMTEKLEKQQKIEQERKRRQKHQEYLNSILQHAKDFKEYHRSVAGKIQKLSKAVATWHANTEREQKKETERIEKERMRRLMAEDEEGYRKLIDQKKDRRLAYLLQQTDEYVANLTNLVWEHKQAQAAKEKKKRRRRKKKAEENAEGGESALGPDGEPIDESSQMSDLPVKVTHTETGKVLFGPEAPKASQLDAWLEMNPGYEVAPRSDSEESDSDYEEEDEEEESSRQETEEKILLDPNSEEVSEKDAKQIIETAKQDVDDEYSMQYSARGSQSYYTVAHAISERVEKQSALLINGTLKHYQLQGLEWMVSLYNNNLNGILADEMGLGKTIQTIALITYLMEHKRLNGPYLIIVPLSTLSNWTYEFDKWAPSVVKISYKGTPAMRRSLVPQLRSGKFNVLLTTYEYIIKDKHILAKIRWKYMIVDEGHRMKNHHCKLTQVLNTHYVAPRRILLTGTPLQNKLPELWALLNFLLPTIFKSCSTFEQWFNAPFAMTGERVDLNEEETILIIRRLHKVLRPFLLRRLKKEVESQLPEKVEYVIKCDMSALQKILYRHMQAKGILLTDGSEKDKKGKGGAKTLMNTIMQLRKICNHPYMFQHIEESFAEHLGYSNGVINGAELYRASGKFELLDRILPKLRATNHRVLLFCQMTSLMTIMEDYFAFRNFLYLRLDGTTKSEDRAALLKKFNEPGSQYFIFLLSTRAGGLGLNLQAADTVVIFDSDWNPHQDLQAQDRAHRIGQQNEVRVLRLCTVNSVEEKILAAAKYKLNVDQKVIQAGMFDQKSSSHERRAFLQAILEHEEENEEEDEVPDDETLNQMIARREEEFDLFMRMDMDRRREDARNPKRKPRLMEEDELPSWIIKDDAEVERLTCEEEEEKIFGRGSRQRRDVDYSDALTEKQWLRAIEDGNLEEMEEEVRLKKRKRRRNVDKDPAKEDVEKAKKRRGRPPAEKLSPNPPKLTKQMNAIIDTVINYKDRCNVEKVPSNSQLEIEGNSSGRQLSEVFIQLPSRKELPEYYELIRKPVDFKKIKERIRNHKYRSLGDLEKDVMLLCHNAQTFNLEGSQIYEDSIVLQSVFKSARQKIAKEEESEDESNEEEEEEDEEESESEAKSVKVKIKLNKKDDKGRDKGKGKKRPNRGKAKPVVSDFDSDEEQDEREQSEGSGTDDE
Dmax reference

Example results:
compound	Dmax
Cn1c(=O)n(C2CCC(=O)NC2=O)c2ccc(CCCCCCCCOc3cccc(CN4CCN(c5cc(-c6ccccc6O)nnc5N)CC4)c3)cc21 (stereo not drawn) [I-142]	< 50%
CN(CCCCc1ccc2c(c1)n(C)c(=O)n2C1CCC(=O)NC1=O)Cc1ccc(N2CCN(c3cc(-c4ccccc4O)nnc3N)CC2)cc1 (stereo not drawn) [I-122]	< 50%
Cn1c(=O)n(C2CCC(=O)NC2=O)c2cccc(C#CCN3CCCC(c4cnc(N5C6CCC5CN(c5cc(-c7ccccc7O)nnc5N)C6)nc4)C3)c21 (stereo not drawn) [I-300]	> 90%
COc1cc(C(=O)NCCCN2CCN(Cc3ccc(-c4cc(-c5ccccc5O)nnc4N)cc3)CC2)ccc1NC(=O)[C@@H]1N[C@@H](CC(C)(C)C)[C@](C#N)(c2ccc(Cl)cc2F)[C@H]1c1cccc(Cl)c1F [I-232]	< 50%
Cc1ncsc1-c1ccc(CNC(=O)[C@@H]2C[C@@H](O)CN2C(=O)[C@@H](NC(=O)[C@H]2CC[C@@H](CN3CCC(n4cc(-c5cc(-c6ccccc6O)nnc5N)cn4)CC3)CC2)C(C)(C)C)cc1 [I-402]	70 to 90%

stdin: Query: Dmax; subject: Cn1c(=O)n(C2CCC(=O)NC2=O)c2cccc(CCCCCN3CCCC(n4cc(-c5cc(-c6ccccc6O)nnc5N)cn4)C3)c21 (stereo not drawn) [I-170]
stdout: 70 to 90%

stdin: Query: Dmax; subject: Cn1c(=O)n(C2CCC(=O)NC2=O)c2ccc(CCCCCCOc3cccc(CN4CCN(c5cc(-c6ccccc6O)nnc5N)CC4)c3)cc21 (stereo not drawn) [I-103]
stdout: < 50%

----------
biological target: SMARCA2 (Homo sapiens, UniProt P51531); test: MSD SMARCA2 degradation in A549 cell line; type: cell-based; settings: A549, A549 cells, 24 h
A collection of compounds and their measured Dmax

compound	attributeMeasured	reportedResult
Cc1ncsc1-c1ccc(CNC(=O)[C@@H]2C[C@@H](O)CN2C(=O)[C@@H](NC(=O)C2CC3(C2)CC(N2CCC(n4cc(-c5cc(-c6ccccc6O)nnc5N)cn4)CC2)C3)C(C)(C)C)cc1 (stereo partly drawn) [I-329]	Dmax	> 90%
Cc1ncsc1-c1ccc(CNC(=O)[C@@H]2C[C@@H](O)CN2C(=O)[C@@H](NC(=O)CNCc2ccc(C#Cc3cc(NC(=O)Nc4cc(F)ncc4CO)ccn3)cc2)C(C)(C)C)cc1 [I-491]	Dmax	< 50%

stdin: Report Dmax for Cc1ncsc1-c1ccc(CNC(=O)[C@@H]2C[C@@H](O)CN2C(=O)[C@@H](NC(=O)[C@@H](C)N2CCC(c3cnc(N4C5CCC4CN(c4cc(-c6ccccc6O)nnc4N)C5)nc3)CC2)C(C)(C)C)cc1 [I-482] please.
stdout: 70 to 90%

----------
molecular target: SMARCA2 (Homo sapiens, UniProt P51531); test: MSD SMARCA2 degradation in NCI-H1299 cell line (24 h); type: cell-based; design: HC: NCI-H1299 cells treated with DMSO; host or cells: NCI-H1299; details: NCI-H1299, NCI-H1299 cells
attributeMeasured: Dmax

Some solved cases for reference:
compound	Dmax
CN(CCCCOCCCCc1cccc2c1n(C)c(=O)n2C1CCC(=O)NC1=O)Cc1ccc(N2CCN(c3cc(-c4ccccc4O)nnc3N)CC2)cc1 (stereo not drawn)	70 to 90%
Nc1nnc(-c2ccccc2O)cc1N1C[C@H]2C[C@@H]1CN2c1cccc(Cn2cc(CCCCOc3cccc4c3C(=O)N(C3CCC(=O)NC3=O)C4=O)nn2)n1 (stereo partly drawn)	70 to 90%

stdin: What value of measured Dmax is listed for Cn1c(=O)n(C2CCC(=O)NC2=O)c2cccc(CCCN3CCC(n4cc(-c5cc(-c6ccccc6O)nnc5N)cn4)CC3)c21 (stereo not drawn) ?
stdout: > 90%

----------
Recorded Dmax values for a group of molecules are listed next.
biological target: SMARCA2 (Homo sapiens, UniProt P51531); assay: MSD SMARCA2 degradation in A549 cell line; assay type: cell-based; details: A549, A549 cells, 24 h

molecule	Dmax
Cc1ncsc1-c1ccc(CNC(=O)[C@@H]2C[C@@H](O)CN2C(=O)[C@@H](NC(=O)C[C@H]2CC[C@H](c3cnc(N4C5CCC4CN(c4cc(-c6ccccc6O)nnc4N)C5)nc3)CC2)C(C)(C)C)cc1	> 90%
O=C1CCC(n2c(=O)oc3c(CCCOC4CCN(Cc5cccc(C#Cc6cc(NC(=O)Nc7cc(F)ncc7CO)ccn6)c5)CC4)cccc32)C(=O)N1 (stereo not drawn)	< 50%

stdin: Suppose we examine the molecule Cc1ncsc1-c1ccc(CNC(=O)[C@@H]2C[C@@H](O)CN2C(=O)[C@@H](NC(=O)Cc2ccc(-c3ccc(N4CCC(Cn5cc(-c6cc(-c7ccccc7O)nnc6N)cn5)CC4)cc3)cc2)C(C)(C)C)cc1 ; what Dmax value has been reported?
stdout: < 50%

----------
Known Dmax of a selection of compounds
molecular target: SMARCA2 (Homo sapiens); test: MSD SMARCA2 degradation in NCI-H1299 cell line (24 h); type: cell-based; parameters: HC: NCI-H1299 cells treated with DMSO; host or cells: NCI-H1299; conditions: NCI-H1299, NCI-H1299 cells

stdin: Which Dmax value belongs to Cc1ncsc1-c1ccc(CNC(=O)[C@@H]2C[C@@H](O)CN2C(=O)[C@@H](NC(=O)[C@H]2CC[C@H](CN3CCC(n4cc(-c5cc(-c6ccccc6O)nnc5N)cn4)CC3)CC2)C(C)(C)C)cc1 [I-403] ?
stdout: > 90%

stdin: Recorded Dmax of Cn1c(=O)n(C2CCC(=O)NC2=O)c2ccc(CN3CCC(n4cc(-c5cc(-c6ccccc6O)nnc5N)cn4)CC3)cc21 (stereo not drawn) [I-181] , please.
stdout: < 50%

stdin: State the recorded Dmax for this entry: NCC#Cc1nccc(N2C3CCC2CN(c2cc(-c4ccccc4O)nnc2N)C3)n1 [I-534]
stdout: > 90%

----------
Quick reference: DC50 of the listed items.
biological target: UniProt P51531; experiment: MSD SMARCA2 degradation in NCI-H1299 cell line (24 h); type: cell-based; parameters: HC: NCI-H1299 cells treated with DMSO; host or cells: NCI-H1299; settings: NCI-H1299 cells, read-out: SMARCA2 MSD H1299 degradation 24 h: External Abs-DC50

compound	DC50
Cn1c(=O)n(C2CCC(=O)NC2=O)c2cccc(CCCN3CCC[C@@H](Cn4cc(-c5cc(-c6ccccc6O)nnc5N)cn4)C3)c21 (stereo partly shown)	100 to 500 nM
Cn1c(=O)n(C2CCC(=O)NC2=O)c2ccc(CCCOCCOCCOCCOCCOCCNC(=O)CCCCCCCCOc3ccnc(N4C[C@H]5C[C@@H]4CN5/C=C/C(=O)c4ccccc4O)c3)cc21 (stereo partly shown)	> 1000 nM
Cn1c(=O)n(C2CCC(=O)NC2=O)c2ccc(CCCOCCOCCOCCOCCNC(=O)CCCCCCCCOc3ccnc(N4C[C@H]5C[C@@H]4CN5/C=C/C(=O)c4ccccc4O)c3)cc21 (stereo partly shown)	> 1000 nM
CN(CCCN1CCC(c2cccc3c2n(C)c(=O)n3C2CCC(=O)NC2=O)CC1)Cc1ccc(N2CCN(c3cc(-c4ccccc4O)nnc3N)CC2)cc1 (stereo not shown)	100 to 500 nM
CC(c1ccc(C(=O)NCCOCCOCCOCCNc2cccc3c2C(=O)N(C2CCC(=O)NC2=O)C3=O)cc1)n1cc(-c2cc(-c3ccccc3O)nnc2N)cn1 (stereo not shown)	> 1000 nM

stdin: # input compound: Cn1c(=O)n(C2CCC(=O)NC2=O)c2ccc(CCCOCCCOCCN3CCN(Cc4ccc(-c5cc(-c6ccccc6O)nnc5N)cc4)CC3)cc21 (stereo not shown) ; wanted: its DC50
stdout: 100 to 500 nM

stdin: What value of measured DC50 is listed for O=C1CCC(N2C(=O)c3cccc(OCCc4cn(CCCc5cccc(N6C[C@H]7C[C@@H]6CN7/C=C/C(=O)c6ccccc6O)n5)nn4)c3C2=O)C(=O)N1 (stereo partly shown) ?
stdout: > 1000 nM

stdin: # get_value(readout='DC50', item= CN(CC#Cc1cnc(N2C3CCC2CN(c2cc(-c4ccccc4O)nnc2N)C3)nc1)CCCc1ccc2c(c1)n(C)c(=O)n2C1CCC(=O)NC1=O (stereo not shown) )
stdout: < 100 nM

stdin: Look up DC50 for this compound: Cn1c(=O)n(C2CCC(=O)NC2=O)c2ccc(CCCN3CCC[C@@H](Cn4cc(-c5cc(-c6ccccc6O)nnc5N)cn4)C3)cc21 (stereo partly shown)
stdout: 100 to 500 nM

stdin: Quick one: DC50 of Cn1c(=O)n(C2CCC(=O)NC2=O)c2cccc(CCCCCCCCN3CCC(Cn4cc(-c5cc(-c6ccccc6O)nnc5N)cn4)CC3)c21 (stereo not shown) ?
stdout: < 100 nM
